target: orexin-1 (Homo sapiens (Human))
Sequence (O43613 whole entry): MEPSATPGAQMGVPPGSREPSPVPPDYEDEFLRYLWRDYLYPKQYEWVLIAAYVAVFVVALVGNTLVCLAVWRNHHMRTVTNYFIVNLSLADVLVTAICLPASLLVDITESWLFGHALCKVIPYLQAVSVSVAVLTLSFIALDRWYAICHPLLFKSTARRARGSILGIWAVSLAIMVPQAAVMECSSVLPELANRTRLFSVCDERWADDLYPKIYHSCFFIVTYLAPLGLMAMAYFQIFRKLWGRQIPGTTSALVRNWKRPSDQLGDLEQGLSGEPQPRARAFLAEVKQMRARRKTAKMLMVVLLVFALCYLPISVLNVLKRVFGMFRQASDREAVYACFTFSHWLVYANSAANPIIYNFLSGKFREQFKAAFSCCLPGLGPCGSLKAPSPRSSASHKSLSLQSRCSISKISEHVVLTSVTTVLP
assay.protocol: Intracellular calcium measurement (FLIPR), CHO cells expressing human orexin-1 receptor, 3 nM orexin-A
Format: cell-based
recorded.conditions: CHO cells expressing human orexin-1 receptor, FLIPR, 3 nM orexin-A; geometric mean if determined several times; read-out: IC50 OX1

smiles.entry | IC50 (nM)
CCOc1ncccc1-c1nnc([C@@H]2CCCN2C(=O)c2cc(OC)c(Cl)cc2-n2nccn2)[nH]1 | 27
O=C(c1cccc(F)c1-c1ccn[nH]1)N1CCC[C@H]1c1nc(-c2ccccc2C(F)(F)F)no1 | 190
COc1cc(C(=O)N2CCC[C@H]2c2noc(-c3cccc(F)c3C)n2)c(-n2nccn2)cc1C | 59
Cc1c(F)cccc1-c1nc([C@@H]2CCCN2C(=O)c2ccccc2-n2nccn2)no1 | 644
O=C(c1ncoc1-c1ccccc1)N1CCC[C@H]1c1nnc(-c2ccccc2OC(F)(F)F)[nH]1 | 5020
Cc1cccc(-c2ocnc2C(=O)N2CCC[C@@]2(C)c2nc(-c3ccccc3)no2)c1 | 560
COc1cc(C(=O)N2CCC[C@H]2c2noc(-c3ccccc3OC(F)(F)F)n2)c(-n2nccn2)cc1C | 22
